- test_description: protein stability index of a GFP-peptide fusion (yeast GPS) (PSI 1-4); higher = more stable; sorted into four equal gates, so the index is relative within each strain
- condition_info: san1∆
Entries annotated with measured protein stability index
measured_endpoint: protein stability index

1. QQNYSKVLLPSINISCV [SWI1] = 1.87
2. SNEEKEKIKMKLKQGQK [GAL11] = 3.04
3. DEKNKNNNEDNENNNNS [MED2] = 3.17
4. DDQCMLITTYSKLSKNI [SIN4] = 1.87
5. KDLQWLEFARITPMNDD [SIN4] = 3.14
6. KSDSQYRFYEYIYSQET [MED1] = 2.74
7. SLSDNDLAVCATIIGII [ECM29] = 2.78
8. TTTVLKRYANHTQDIIG [RET1] = 3.02
9. LNLEQVTLNKYCSGNIY [YJL039C/NUP192] = 2.59
10. FVCLSCSHIFTSDQKNK [RPB9] = 2.04
11. KAFKICEAAVEISKKDF [SIR3] = 2.79
12. ETANVASLNLLQLAPGA [RPL4A] = 3.29
13. LELGSCFSQENIEEMAR [SIN4] = 2.64
14. VIKRLEASTVPWGDYLQ [BRR2] = 1.54
15. DKITLHDEKTLAPSKHQ [SIR4] = 2.44
16. PKNIEPPLTSQYSTRHD [SWI3] = 3.04
17. GSAATSGFEFSKEDTLR [RPN1] = 2.72
18. HASENISLSFSRPASYG [SIR4] = 2.74
19. IRITSLQGDLTFTKKCL [SIR4] = 2.81
20. ERKEQEEKEKEQSKEVG [BRN1] = 3.49
21. SENRFPGWDFETEEIDP [RPL5] = 2.48
22. RTHFKRMRFPPFDDDEP [PRP8] = 2.91
23. DQSISKLQSWDKVSSCF [NNF1] = 1.42
24. KCPLLVEVDITLSPNVT [GRR1] = 1.76
25. SVLSSKPGSKPEKTSTE [SIR3] = 3.15
26. RRERRLIFGTIASKMSL [RPT3] = 2.36
27. IRALQPKLKEGALHFVQ [YIL149C/MLP2] = 2.17
28. IYQTLIALNLDTTVNDC [SNF2] = 2.25
29. IPSSKYAYMMNSQSPRG [YLR018C/POM34] = 2.75
30. NGNWEVGVHIADVTHFV [DIS3] = 2.9
31. TVTIASSLNLEDTPAND [RPB8] = 2.65
32. PSTTDDENGDKNDNGGK [SWI3] = 3.23
33. LAAPKKLNDSQRKTVNS [POP1] = 3.02
34. YDLLISTLTTISGNPPL [SRB5] = 1.77
35. SSYEEFLERFDFYTRHH [ITC1] = 3.03
36. RRRTYRAHGRINKYESS [RPL17A] = 1.9
37. INIDDLLYELTAFKATV [YJL039C/NUP192] = 2.41
38. NVVEVMDMNEIEDKENS [RPT5] = 2.26
39. IDQVMMSVSDNDQALIK [RET1] = 3.13
40. DIKAAVDDSMELCGQIR [ITC1] = 2.21
41. TPVVLATPIPEEVQQAQ [RPS5] = 3.1
42. SGDNHTQQSHEQQPEQP [RPT4] = 3.03
43. TVDLALFGSPPFILEYD [YMR129W/POM152] = 1.9
44. QRVCLRSDSYMLHKVLE [RPT6] = 2.81
45. DMATGSNDTTAFNDSCV [SRB8] = 3.14
46. GQLISLLFEDLFKKFNN [RET1] = 3.34
47. IEFEYDPWNKLKHTDYW [RPB3] = 2.81
48. SYYDNDLDETTQTFNGS [YML031W/NDC1] = 2.66
49. KKINAKEKLIGWYHSGP [RPN8] = 3.33
50. NGVIIAADNLGSYGSLL [PRE4] = 2.92
51. PLSQDELISLRKILESS [YIL149C/MLP2] = 2.15
52. SASSKEFNFTNLQAKPL [YAR002W/NUP60] = 2.46

###

- test_description: protein stability index of a GFP-peptide fusion (yeast GPS) (PSI 1-4); higher = more stable; sorted into four equal gates, so the index is relative within each strain
- condition_info: doa10∆
The sequences listed here are annotated with their protein stability index.
measured_endpoint: protein stability index

1) IKRTDEGGEAEFIFGTY [ARP7] = 3.35
2) NKDASLALQRGATVFVN [DPB4] = 2.61
3) LFLRGDSVIVVLKTPVE [SMD2] = 2.63
4) VNDRYQIPTPNNTVDPG [CSI1] = 1.44
5) STVAKNVSFVLPDEKSD [YCG1] = 3.2
6) LSLKRTLTDILEDELYH [RPN4] = 3.11
7) KHEEIDTKNLYVIKALQ [RPS10A] = 1.6
8) SKEVRGSKIRVMWGKVT [RPL33A] = 2.68
9) TKLDQVWGSETVASSKV [RPL4A] = 2.72
10) SNLAATKSMVKIAEQYS [RPN11] = 2.83
11) TFIDKERHQKQLNEKLV [YCS4] = 2.62
12) CRNILGVTSLIKNLGLP [RPP1] = 1.81
13) KLELINRYAYVLSSLMF [LRP1] = 2.21
14) SKQNGIEQSITKNIPIT [SSN8] = 2.63
15) RFKSQFLYVLIPAGIYW [QCR8] = 1.75
16) YDRATLTQLLSMMSDGI [RPO31] = 2.29
17) DSKKIKVDSPDDPFMTK [GAL11] = 2.55
18) RDLSEASVYPEYALPKT [RPS26A] = 3.11
19) LNRFNFQNTNTRSALKL [QCR2] = 2.71
20) TAEAPTLSFNFSQKANK [YOR098C/NUP1] = 3.27
21) GILGNKAQAKMDKRAKT [RPL8B] = 3.58
22) QGSMSERPPYILNSYGV [SIR2] = 2.73
23) KQNPGLMQNMMNMFGGG [SRP54] = 2.05
24) NTTKPAFGGLNFGGGNN [YJL041W/NSP1] = 2.71
25) SPASGIVDKYIGESARI [RPT4] = 2.95
26) SMNVTLGVPRIKEIINA [RPO31] = 2.71
27) QQNPKFLQSQRQQQQRS [SWI1] = 2.47
28) ATADTTHLHEALDIVCS [NUT1] = 2.12
29) FEDATREQHIDTICQSI [SNF5] = 2.88
30) DGTAKEVGDEADNTKDK [MED4] = 3.06

###

Listing of entries alongside the reported protein stability index.
- test_description: protein stability index of a GFP-peptide fusion (yeast GPS) (PSI 1-4); higher = more stable; sorted into four equal gates, so the index is relative within each strain
- condition_info: san1∆
measured_endpoint: protein stability index

1) KLLDSGCENPADVFRRC [SRP72] = 2.13
2) LDDDSIVNHEQDLPKIN [SRB4] = 2.99
3) LSNFNADINLEESIRES [SIR3] = 2.75
4) LSNLSKDIKANLSSNVN [YCS4] = 3.04
5) GGAKSRGVRPYKHIDAS [RPS19A] = 2.93
6) YTYLYVRMLASPMLYKV [BRR2] = 1.22
7) NSTHLLPLQPIEIDYTV [SNF12] = 2.27
8) KNDTHYLLPDDFHFSTD [BRN1] = 2.9
9) QNDFLFSVGESLSVVAG [ECM29] = 2.92
10) AKLSERSNGSVASLSKR [YJL039C/NUP192] = 1.81
11) CLTKFQDEEQTEHLTEL [YCG1] = 3.46

###

- test_description: protein stability index of a GFP-peptide fusion (yeast GPS) (PSI 1-4); higher = more stable; sorted into four equal gates, so the index is relative within each strain
- condition_info: doa10∆
Below, each entry is listed with its recorded protein stability index.
measured_endpoint: protein stability index

1. KIAHGTTTLAFRFQGGI [PRE2] = 3.03
2. EGNQGSLQEDVSFDFNG [MED8] = 3.17
3. NGGNNTQQPGTNSHYNN [SNF2] = 3.05
4. RSISWAPSIGRWYQLIA [YGL100W/SEH1] = 1.26
5. SQPSKKSFANHTEDEQI [SIR4] = 2.81
6. AQYFYSGAYSYPDFRHY [DIS3] = 1.43
7. STGCVVGLSQPDAKIQV [YMR129W/POM152] = 2.29
8. LNECLKTIQINNEKVVQ [YML031W/NDC1] = 1.96
9. KRFNIGADPNYRTYSER [RPR2] = 3.08
10. NPHDTLNRIKKYLLTQR [PRP8] = 2.22
11. SYQKLLKNYVLNELHPT [PRP8] = 1.62
12. FHFRAPSRIFYKALRGM [RPL16A] = 1.97
13. GNSEAIPGLSAGVNNDN [RTT102] = 3.21
14. EKLINNSDDCMMEEIIN [ECM29] = 3.36
15. FKSTESNISDEKSRISE [YMR129W/POM152] = 3.3
16. LELQVAQAFVELENSSP [RPS7A] = 3.15
17. IFSQMSRLLDILEDYCY [ISW2] = 1.66
18. LKRNSWPKTRGVAMNPV [RPL2A] = 2.95
19. QRQERLRQQQQQQDQPE [RPN10] = 3.34
20. IYFTVPNEFEIQLSTVN [RGR1] = 2.21
21. CSIEPIAAKLINSGLYS [YML103C/NUP188] = 1.77
22. LRNYLTPNVREEKQKSY [PUP1] = 3.41
23. NKNLPFVWLSSEENIGS [SWI1] = 2.9
24. NFNASLQLTTNTEQGDS [SNM1] = 2.02
25. SVSLVDEFPSELSDSDR [SIR4] = 2.68
26. LKDLNLTVSIKIALMNI [RGR1] = 1.34
27. SVVSMSNDVLKPETPKG [SIR2] = 3.01
28. SLLDKPDEAIEKVFNAY [FAS1] = 3.15
29. IDGKTVSYKDYSIFLEN [SMC1] = 2.72
30. RLISSKMPGGFTITVAR [FAS2] = 1.65
31. GVEYRLRLRISRKRNEE [RPL31A] = 1.5
32. HPFVFEEVEDQINPTRE [SNF2] = 3.36
33. YLYCLDNNITEMLEENF [YCG1] = 2.3
34. SAGKGISSSAIPYSRNA [RPS13] = 2.61
35. QVVGPFHTSFSAVVGPN [SMC4] = 2.53
36. LDKLDEILYYQIKTLPE [AAR2] = 2.89
37. VGVVFGSGAANENPYNN [COR1] = 3.24
38. EDIIKRTSPIDNVSNTH [NUT2] = 2.87
39. ICLYSSFQKNSLHNTEK [AAR2] = 1.99
40. IYDFHKMENLMRLIKRV [YJL039C/NUP192] = 2.58
41. STTQEILEFITAAQVAN [RPC34] = 2.65
42. AEEKREAVIDEKLEVIA [ITC1] = 3.04
43. LTSSKSVIVSQFCAFDS [SIN4] = 2
44. YTKKHLSSHSSTNSNSK [RPN4] = 3.37
